Assay: Inhibition of CENP-E in human SK-N-FI cells assessed as decrease in cell viability after 72 hrs in presence of ERK1 siRNA by Cell-titer Glo reagent assay
measure: pIC50
// pIC50: -log10(molar conc.)

input: Indicate its recorded pIC50; the compound in question is CC(C)Oc1ccc(C(=O)N[C@H](CNC(=O)CN(C)C)Cc2ccc(-c3cn4cccc([C@H](C)O)c4n3)cc2)cc1Cl [Gsk-923295a]
output: 6.87

---

Assay: Inhibition of CENP-E in human HCT-116 cells expressing KRAS mutant assessed as decrease in cell viability after 72 hrs by Cell-titer Glo reagent assay
measure: IC50 (nM)
Give the number; nM is assumed, so skip it.

input: Indicate its recorded IC50; the molecule in question is CC(C)Oc1ccc(C(=O)N[C@H](CNC(=O)CN(C)C)Cc2ccc(-c3cn4cccc([C@H](C)O)c4n3)cc2)cc1Cl [Gsk-923295a]
output: 52

---

Assay: Inhibition of CENP-E in human SK-N-FI cells assessed as decrease in cell viability after 72 hrs by Cell-titer Glo reagent assay
measure: IC50 (nM)
Give the number; nM is assumed, so skip it.

input: Indicate its recorded IC50; the compound in question is CC(C)Oc1ccc(C(=O)N[C@H](CNC(=O)CN(C)C)Cc2ccc(-c3cn4cccc([C@H](C)O)c4n3)cc2)cc1Cl [Gsk-923295a]
output: 283

---

Assay: Inhibition of CENP-E in human RKO cells expressing BRAF mutant assessed as decrease in cell viability after 72 hrs by Cell-titer Glo reagent assay
measure: pIC50
// pIC50: -log10(molar conc.)

input: Indicate its recorded pIC50; the compound in question is CC(C)Oc1ccc(C(=O)N[C@H](CNC(=O)CN(C)C)Cc2ccc(-c3cn4cccc([C@H](C)O)c4n3)cc2)cc1Cl [Gsk-923295a]
output: 7.25
